From: patent US20160297830A1

tested on: E. coli Ec1 ATCC 25922; assay: Antibacterial activity assay (MIC), E. coli Ec1; assay type: cell-based; conditions: Escherichia coli, ATCC25922, read-out: MIC Ec1
Listed here: items and their measured MIC.

molecule	target_or_system	outcome_measure	result
CO[C@H]1C[C@H]2C=C[C@H]3[C@H]4O[C@]2(/C(C)=C/[C@@H](C)[C@@H]([C@@H](C)O)OC1=O)[C@@H]3[C@H](O)[C@@H](C)[C@H]4OC(=O)c1ccc[nH]1 [Nargenicin A1, reference compound]	E. coli Ec1 ATCC 25922	MIC	> 64 mg/L
COC[C@@H]1[C@@H](O)[C@@H]2[C@H]3C=C[C@@H]4[C@@H](COC)C(=O)O[C@H]([C@H](O)COC)[C@H](C)/C=C(\C)[C@@]24O[C@H]3[C@@H]1OC(=O)c1ccc(C)[nH]1 [Compound 6]	E. coli Ec1 ATCC 25922	MIC	> 64 mg/L
COC/C(=N\OC)[C@H]1OC(=O)[C@H](COC)[C@H]2C=C[C@H]3[C@H]4O[C@]2(/C(C)=C/[C@H]1C)[C@@H]3[C@H](O)[C@@H](COC)[C@H]4OC(=O)c1ccc[nH]1 [Compound 27]	E. coli Ec1 ATCC 25922	MIC	> 64 mg/L
COC[C@@H]1[C@@H](O)[C@@H]2[C@H]3C=C[C@@H]4[C@@H](COC)C(=O)O[C@H]([C@@H](COC)OC)[C@H](C)/C=C(\C)[C@@]24O[C@H]3[C@@H]1OC(=O)c1ccc[nH]1 [Compound 18]	E. coli Ec1 ATCC 25922	MIC	> 64 mg/L
COC[C@@H](O)[C@H]1OC(=O)[C@H](COC)[C@H]2C=C[C@H]3[C@H]4O[C@]2(/C(C)=C/[C@H]1C)[C@@H]3[C@H](O)[C@@H](C)[C@H]4OC(=O)c1cc(F)c[nH]1 [Compound 23]	E. coli Ec1 ATCC 25922	MIC	> 64 mg/L

Consider the molecule shown here: COC[C@@H]1[C@@H](O)[C@@H]2[C@H]3C=C[C@@H]4[C@@H](COC)C(=O)O[C@H]([C@H](O)COC)[C@H](C)/C=C(\C)[C@@]24O[C@H]3[C@@H]1OC(=O)c1cnco1 [Compound 14, 8-O-Oxazole-5′ carbonylbranimycin] What is its recorded MIC? > 64 mg/L

# iterate: COC[C@@H]1[C@@H](O)[C@@H]2[C@H]3CC[C@@H]4[C@@H](COC)C(=O)O[C@H]([C@H](O)COC)[C@H](C)/C=C(\C)[C@@]24O[C@H]3[C@@H]1OC(=O)c1ccc[nH]1 [Compound 16] > 64 mg/L

Let us now turn to COC[C@@H]1[C@@H](O)[C@@H]2[C@H]3C=C[C@@H]4C[C@H](O)C(=O)O[C@H]([C@H](O)COC)[C@H](C)/C=C(\C)[C@@]24O[C@H]3[C@@H]1OC(=O)c1ccc[nH]1 [Nargenicin B1, reference compound] > 64 mg/L

Try this molecule too: COC[C@@H]1[C@@H](O)[C@@H]2[C@H]3C=C[C@@H]4[C@@H](COC)C(=O)O[C@H]([C@H](O)COC)[C@H](C)/C=C(\C)[C@@]24O[C@H]3[C@@H]1OC(=O)c1cc(C)c[nH]1 [Compound 12] > 64 mg/L
